System: NCI-H358
Assay: relative viability (nuclei count vs DMSO), 5 days (fraction); higher = more cells survive
Settings: first compound 0.2 µM
ENDPOINT NAME: relative viability
Please state the value as a number alone, without comment.

>  <MOLECULE>
CCNC(=O)c1noc(-c2cc(C(C)C)c(O)cc2O)c1-c1ccc(CN2CCOCC2)cc1 [Luminespib] + C[C@@H](Oc1cc(-c2cnn(C3CCNCC3)c2)cnc1N)c1c(Cl)ccc(F)c1Cl [Crizotinib] (partner 1 µM)

>  <OBSERVED RESULT>
0.0988

$$$$

Exercise: Supply relative viability value. Item: CN1CCN(CCOc2cc(OC3CCOCC3)c3c(Nc4c(Cl)ccc5c4OCO5)ncnc3c2)CC1 [Saracatinib] + C[C@@H](Oc1cc(-c2cnn(C3CCNCC3)c2)cnc1N)c1c(Cl)ccc(F)c1Cl [Crizotinib] (partner 1 µM)
Solution: 0.611

Exercise: Return the recorded relative viability value; entry: CN1CCN(CCOc2cc(OC3CCOCC3)c3c(Nc4c(Cl)ccc5c4OCO5)ncnc3c2)CC1 [Saracatinib] + O=C(c1cc(Cc2n[nH]c(=O)c3ccccc23)ccc1F)N1CCN(C(=O)C2CC2)CC1 [Olaparib] (partner 8 µM)
Solution: 0.529

Exercise: Provide relative viability value for the following molecule: CN1CCN(CCOc2cc(OC3CCOCC3)c3c(Nc4c(Cl)ccc5c4OCO5)ncnc3c2)CC1 [Saracatinib] + Cc1cc(Nc2cc(N3CCN(C)CC3)nc(Sc3ccc(NC(=O)C4CC4)cc3)n2)n[nH]1 [Tozasertib] (partner 0.1 µM)
Solution: 0.0883

Exercise: Please indicate relative viability recorded for CCNC(=O)c1noc(-c2cc(C(C)C)c(O)cc2O)c1-c1ccc(CN2CCOCC2)cc1 [Luminespib] + Cc1nc(NC(=O)N2CCC[C@H]2C(N)=O)sc1-c1ccnc(C(C)(C)C(F)(F)F)c1 [Alpelisib] (partner 2 µM)
Solution: 0.128

Exercise: Given the molecule Cc1csc(=NC2CCCCC2)n1/N=C/c1ccc(O)c(O)c1O [MIM1] + Cc1nc(Nc2ncc(C(=O)Nc3c(C)cccc3Cl)s2)cc(N2CCN(CCO)CC2)n1 [Dasatinib] (partner 0.075 µM) , write its reported relative viability.
Solution: 0.182

Values were extracted from the supplement of paper PMC10307832.
